These entries and their values trace back to patent US20160122386A1.

Target: human V1aR (Homo sapiens, UniProt P37288)
Construct: expressed in transfected cells
Sequence (P37288 whole entry): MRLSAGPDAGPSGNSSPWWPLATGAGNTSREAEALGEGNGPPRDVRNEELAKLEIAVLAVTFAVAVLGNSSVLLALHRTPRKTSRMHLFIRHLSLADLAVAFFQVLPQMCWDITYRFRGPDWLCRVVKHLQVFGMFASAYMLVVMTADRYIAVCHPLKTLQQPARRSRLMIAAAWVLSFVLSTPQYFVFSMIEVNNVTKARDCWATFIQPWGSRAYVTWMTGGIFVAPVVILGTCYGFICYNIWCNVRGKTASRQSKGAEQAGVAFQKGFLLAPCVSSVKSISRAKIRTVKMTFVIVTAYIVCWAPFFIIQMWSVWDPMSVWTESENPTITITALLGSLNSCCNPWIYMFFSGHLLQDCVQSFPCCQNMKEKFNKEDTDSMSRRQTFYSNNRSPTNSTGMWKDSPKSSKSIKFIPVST
Assay: Agonist activity at vasopressin V1a receptors, cell-based FLIPR calcium assay
quantity measured: pEC50
// pEC50: -log10(molar conc.)

Q: Provide value of pEC50 for this record tested with human V1aR (Homo sapiens, UniProt P37288): CC[C@H](C)[C@@H]1NC(=O)[C@H](Cc2ccccc2)NC(=O)[C@@H](O)CSSC[C@@H](C(=O)N2CCC[C@H]2C(=O)N[C@@H](CCNC(=O)[C@@H](N)CCCCNC(=O)CC[C@H](NC(=O)[C@H](CCCNC(=N)N)NC(=O)[C@@H]2CCCN2C(=O)[C@H](C)NC(=O)[C@H](CC(N)=O)NC(=O)[C@H](CCC(N)=O)NC(=O)[C@H](Cc2ccccc2)NC(=O)[C@@H](Cc2ccc(OC)cc2)NC(=O)Cc2ccccc2)C(N)=O)C(=O)NCC(N)=O)NC(=O)[C@H](CC(N)=O)NC(=O)[C@H](CCC(N)=O)NC1=O
Ans: 8.96

Would you kindly look at the next entry?
Q: Provide value of pEC50 for this record tested with human V1aR (Homo sapiens, UniProt P37288): CC[C@H](C)[C@@H]1NC(=O)[C@H](Cc2ccccc2)NC(=O)[C@@H](N)CSSC[C@@H](C(=O)N2CCC[C@H]2C(=O)N[C@@H](CCCNCCCCCNC(=O)CC[C@H](NC(=O)[C@H](CCCNC(=N)N)NC(=O)[C@@H]2CCCN2C(=O)[C@H](CCCNC(N)=O)NC(=O)[C@H](CC(N)=O)NC(=O)[C@H](CCC(N)=O)NC(=O)[C@H](CC(C)(C)C)NC(=O)[C@@H](Cc2ccc(OC)cc2)NC(=O)Cc2ccccc2)C(N)=O)C(=O)NCC(N)=O)NC(=O)[C@H](CC(N)=O)NC(=O)[C@H](CCC(N)=O)NC1=O
Ans: 8.85

====

Molecular target: human V1aR (Homo sapiens, UniProt P37288)
Construct: expressed in transfected cells
Test: Agonist activity at vasopressin V1a receptors, cell-based FLIPR calcium assay
Conditions: read-out: Efficacy Avg. (%)
quantity measured: Emax (%)
Kindly answer with a numeric value in %, unit omitted.

Some compounds with known Emax results, for comparison:
Q: Emax for CC[C@H](C)[C@@H]1NC(=O)[C@H](Cc2ccccc2)NC(=O)[C@@H](N)CSSC[C@@H](C(=O)N2CCC[C@H]2C(=O)N[C@@H](CCCNCCCCCNC(=O)CCNC(=O)CC[C@H](NC(=O)[C@H](CCCNC(=N)N)NC(=O)[C@@H]2CCCN2C(=O)[C@H](C)NC(=O)[C@H](CC(N)=O)NC(=O)[C@H](CCC(N)=O)NC(=O)[C@H](Cc2ccccc2)NC(=O)[C@@H](Cc2ccc(OC)cc2)NC(=O)Cc2ccccc2)C(N)=O)C(=O)NCC(N)=O)NC(=O)[C@H](CC(N)=O)NC(=O)[C@H](CCC(N)=O)NC1=O ?
Ans: 42

Q: Check CC[C@H](C)[C@@H]1NC(=O)[C@H](Cc2ccccc2)NC(=O)[C@@H](N)CSSC[C@@H](C(=O)N2CCC[C@H]2C(=O)N[C@@H](CCCNCCCCCNC(=O)CC[C@H](NC(=O)[C@H](CCCNC(=N)N)NC(=O)[C@@H]2CCCN2C(=O)[C@H](C)NC(=O)[C@H](CC(N)=O)NC(=O)[C@H](CCC(N)=O)NC(=O)[C@H](Cc2ccccc2)NC(=O)[C@@H](Cc2ccc(OC)cc2)NC(=O)Cc2ccccc2)C(N)=O)C(=O)NCC(N)=O)NC(=O)[C@H](CC(N)=O)NC(=O)[C@H](CCC(N)=O)NC1=O too.
Ans: 52

Would you kindly look at the next entry?
Q: Emax for CC[C@H](C)[C@@H]1NC(=O)[C@H](Cc2ccccc2)NC(=O)[C@@H](O)CSSC[C@@H](C(=O)N2CCC[C@H]2C(=O)N[C@@H](CCNC(=O)[C@@H](N)CCCCNC(=O)CC[C@H](NC(=O)[C@H](CCCNC(=N)N)NC(=O)[C@@H]2CCCN2C(=O)[C@H](CCCCN)NC(=O)[C@H](CC(N)=O)NC(=O)[C@H](CCC(N)=O)NC(=O)[C@H](Cc2ccccc2)NC(=O)[C@@H](Cc2ccc(OC)cc2)NC(=O)Cc2ccccc2)C(N)=O)C(=O)NCC(N)=O)NC(=O)[C@H](CC(N)=O)NC(=O)[C@H](CCC(N)=O)NC1=O ?
Ans: 56
